The origin of these recorded values is PubChem BioAssay (NCI).

Test system: SF-268 CNS
ASSAY NOTES: NCI-60 one-dose screen, 48 h (100 = growth as untreated, 0 = no growth, -100 = all killed)
ASSAY CONTEXT: 10 µM unless noted
Compounds without any hit were thinned out: in the full panel of roughly 83,000, 20% have a hit.
T if growth is below 50%. F if not; exact matches included in F.

## Input Record CC1c2ccccc2N(S(=O)(=O)c2ccccc2)C1C (stereo not given) : is its growth strictly below 50%?
## Output F

## Input One more compound: COCCNC1=C(Cl)C(=O)c2ccccc2C1=O
## Output F

## Input One more compound: COC(=O)[C@]12CC[C@@H](C)[C@H](C)[C@@H]1C1=CC[C@@H]3[C@@]4(C)C[C@@H](O)[C@H](O)[C@@](C)(CO)C4=CC[C@@]3(C)[C@]1(C)CC2
## Output T

## Input One more compound: Nc1nc(Br)nc2c1ncn2C1CC(O)C(CO)O1 (stereo not given)
## Output F

## Input One more compound: CCC(=O)c1c(C)[nH]c(C)c1C
## Output F

## Input One more compound: CCOC(=O)C/C(=C\c1ccccc1)C(C)=O
## Output F

## Input One more compound: Cc1ccc(N(CC(=O)Nc2ccc(S(=O)(=O)N3CCC(N4CCCC4)CC3)cc2)S(=O)(=O)c2ccc(Cl)cc2)cc1
## Output T

## Input One more compound: c1ccc(-c2nc(Nc3ccc(-c4nc5ccccc5[nH]4)cc3)nc(N3CCOCC3)n2)cc1
## Output T

## Input One more compound: COc1ccccc1CNc1nc(N)nc2[nH]c3ccc(O)cc3c12
## Output F

----------
Test system: OVCAR-3 ovarian
ASSAY NOTES: NCI-60 one-dose screen, 48 h
ASSAY CONTEXT: 10 µM unless noted
About 83,000 compounds went through this panel and 20% of them were active in at least one assay; those are over-represented in the sample as a whole. Calls of active or inactive are those of the source. Rule for the calls: active = growth percent below 10; inactive = the rest.
Write down one outcome, taken from active, inactive

## Input For this compound, state the assay outcome: CC1(C)C(=O)/C(=C\c2ccccn2)C[C@]2(C)[C@H]3CC[C@@H]4[C@@H](C(=O)/C=C/c5ccccn5)CC[C@@]4(C)[C@]3(C)CC[C@@H]12
## Output active

## Input One more compound: COc1ccc2nc(-c3c(-c4ccccc4)nc4ncccn34)[nH]c2c1
## Output inactive

## Input One more compound: O=C1C(=O)c2ccccc2C(O)=C1CCCc1ccc(C2CCCCC2)cc1
## Output inactive

## Input One more compound: O=P(O)(c1ccccc1)c1ccccc1I
## Output inactive

## Input One more compound: COc1cccc(-c2nn(-c3ccccc3)cc2-c2ccnc(NCCNS(=O)(=O)c3cccc(F)c3)c2)c1
## Output inactive

----------
System: EKVX NSCLC
ASSAY NOTES: NCI-60 one-dose screen, 48 h (100 = growth as untreated, 0 = no growth, -100 = all killed)
ASSAY CONTEXT: 10 µM unless noted
About 83,000 compounds went through this panel and 20% of them were active in at least one assay; those are over-represented in the sample as a whole.
Property: growth; scope: individual compounds
Note: unit % is implicit; provide only the numeric part.

Consider the following illustrative entries.
>>> result("COc1cnc2c(c1)C(=O)c1c-2n(CCCN2CCN(CCO)CC2)c(=O)c2cc([N+](=O)[O-])ccc12")
66
>>> result("COc1cc2c(cc1-c1c(C)noc1C)ncc1nc(C3CC3)n([C@H](C)COC(F)F)c12")
56.9
>>> result("C=C(C)[C@@H]1CC[C@]2(C=NCCCNCCCCNCCCN)CC[C@]3(C)[C@H](CC[C@@H]4[C@@]5(C)CCCNC(C)(C)[C@@H]5CC[C@]43C)[C@@H]12")
102

Now look at this entry.
## Input Item COc1cccc(-c2nn(-c3ccccc3)cc2-c2ccnc(NCCNS(=O)(=O)c3ccc(C(F)(F)F)cc3)c2)c1 has what recorded growth?
## Output 29.4
